Target: T1, LRRC7, Q96NW7
T1 sequence (Q96NW7 1440-1537, limits assumed, looked up): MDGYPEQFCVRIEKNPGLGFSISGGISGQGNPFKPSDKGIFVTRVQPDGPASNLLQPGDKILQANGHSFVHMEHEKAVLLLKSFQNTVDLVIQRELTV
Assay: holdup assay
Design: key: below the threshold = too weak to quantify, mostly under pKd 3.1 to 4
Details: plain residues with an end cap or a label only (N-terminal biotin on a linker: ado-ado)
Attribute: pKd

# binder, pKd
measured = [
    ("PLPPEEESWV [GAS2L2, Q8NHY3]", 4.96),
    ("ATKDKKITTV [EXOC4, Q96A65]", 3.48),
    ("HLSTRQGTCV [ATRNL1, Q5VV63]", 3.63),
]
